The measurements presented in this section are drawn from ChEMBL document CHEMBL1201862.

system: KM12; assay: NCI tumour cell line growth inhibition, 48 h
Calls of active or inactive are those of the source. Rule as the data show it: active = GI50 up to about 1.1 µM and inactive = higher.

MOLECULE	GI50
CC(=O)Oc1ccc(OC(Oc2ccccc2)c2ccccc2)cc1 (stereo not given)	23.2 µM (inactive)
COc1cc2nc(-c3cccs3)nc(Nc3cccc([N+](=O)[O-])c3)c2cc1OC	17.9 µM (inactive)
Brc1c2nc3ccccc3nc2n2ccc3ccccc3c12	> 100 µM (inactive)
O=C1c2ccccc2C2(O)N(c3ccccc3)C(=S)N(c3ccccc3)C12O (stereo not given)	> 100 µM (inactive)
COc1cc(C)c(/C=C2/N=C(c3ccccc3)OC2=O)c([N+](=O)[O-])c1OC	> 100 µM (inactive)
